System: NCI-H460
protocol details: NCI tumour cell line growth inhibition, 48 h
Activity calls are given as the source filed them. Cut-off read from the data, not from the text of the source: active = GI50 up to about 1.1 µM and inactive = higher.
Each item that follows carries a reported GI50.

Solved cases below.
1. Cc1c(C(Cc2ccccc2N(C)C(=O)/C=C\C(=O)O)c2c[nH]c3ccccc23)c2ccccc2n1C (stereo not given): 15.3 µM (inactive)
2. O=C1CCC2(O)C3Cc4ccc(Oc5nnnn5-c5ccccc5)c5c4C2(CCN3CC2CC2)C1O5 (stereo not given): 56.5 µM (inactive)
3. COC(=O)C(=O)C(CC(=O)Nc1ccc(C)cc1)C(=O)OC (stereo not given): > 100 µM (inactive)
4. COC(=O)C1Cc2c([nH]c3ccccc23)-c2[nH]c3ccccc3c2CC(NC(C)=O)C(=O)N2CCCC2C(=O)N1 (stereo not given): > 100 µM (inactive)
5. CC(C)(C)OC(=O)N(CCCCNC(=O)C(F)(F)F)CCCNC(=O)C(F)(F)F: > 100 µM (inactive)

Value of measured GI50 for the entry Clc1ccc(C2=NNC(c3cccc(Cl)c3)C2)cc1 (stereo not given) : 28.5 µM (inactive)

Value of measured GI50 for the entry C=C(C)[C@@H]1CC=C(CO)CC1 [PERILLYL ALCOHOL] : 454 µM (inactive)

Value of measured GI50 for the entry COC(=O)c1cc(C)c(C)c2c1NC(=O)CNC2=O : > 100 µM (inactive)

Value of measured GI50 for the entry C=CC(Br)(CBr)CCC(Br)C(C)(C)Cl (stereo not given) : 2.21 µM (inactive)

Value of measured GI50 for the entry CN(C)CCCNC(=O)N/N=C/c1cccc([N+](=O)[O-])c1 : > 100 µM (inactive)

====

Tested on: PC-3
protocol details: NCI tumour cell line growth inhibition, 48 h
Active and inactive are the calls of the source. No stated cut-off is given here; in the data, active = GI50 up to about 1.1 µM and inactive = higher.
measurement type: GI50

1) COc1cccc(NC(=O)CC(=O)n2nc(-c3ccccc3)c(/N=N/c3ccc(Cl)cc3)c2-c2ccccc2)c1: 27.9 µM (inactive)

Value of measured GI50 for the entry CN(C)CCCn1nc(N)c2nc3cc(Cl)ccc3nc21 : 41.4 µM (inactive)

Value of measured GI50 for the entry CNS(=O)(=O)c1ccccc1C(=N)c1ccccc1 : > 100 µM (inactive)

Value of measured GI50 for the entry CN(CCNC(=O)c1cc(-c2ccccc2)nc2ccccc12)CCNC(=O)c1cc(-c2ccccc2)nc2ccccc12 : 10.3 µM (inactive)

Value of measured GI50 for the entry CN1C2CCC1CC(C)(O)C2 (stereo unspecified) : > 100 µM (inactive)

Value of measured GI50 for the entry C1CSCCCSCCCSCCCSCCCSC1 : 19 µM (inactive)

Value of measured GI50 for the entry O=C1Nc2ccccc2/C1=C\c1c(-c2ccccc2)nc2n1CCS2 : 19.1 µM (inactive)

Value of measured GI50 for the entry O=C(/C(=C/c1cccs1)c1ccccc1)c1ccccc1 : 25.6 µM (inactive)

Value of measured GI50 for the entry N=C(N)c1ccc(/N=N\c2c(O)c(C(=O)Nc3ccccc3)cc3ccccc23)cc1 : 17.9 µM (inactive)

Value of measured GI50 for the entry Nc1nc(N)c2ncn(-c3ccc(Cl)cc3)c2n1 : 35.7 µM (inactive)

Value of measured GI50 for the entry Cc1c2cccc-2ccc2c3ccccc3n(C(=O)c3ccc(Cl)cc3)c12 : > 100 µM (inactive)

====

System: SK-OV-3
protocol details: NCI tumour cell line growth inhibition, 48 h
Calls of active or inactive are those of the source. Cut-off read from the data, not from the text of the source: active = GI50 up to about 1.1 µM and inactive = higher.
measurement type: GI50

Solved cases below.
1. COc1ccc(C2CCc3c(cnc4nc(N)nc(N)c34)C2)cc1 (stereo unspecified): 18.1 µM (inactive)
2. O=C(OCC1OC(c2nn[nH]n2)C(OC(=O)c2ccccc2)C1OC(=O)c1ccccc1)c1ccccc1 (stereo unspecified): > 100 µM (inactive)

Kindly note: SK-OV-3, O=c1c2ccccc2n2c(S)nnc2n1-c1ccccc1 , GI50 value reported: > 100 µM (inactive)

Kindly note: SK-OV-3, Nc1nc(N)c2ncn(-c3ccc(Cl)cc3)c2n1 , GI50 value reported: 20.5 µM (inactive)

Kindly note: SK-OV-3, COC1C2C[C@@H](O)CCC2C(C(=O)OCCl)C[C@H]1O (stereo partly specified) , GI50 value reported: > 100 µM (inactive)

Kindly note: SK-OV-3, CCOC(=O)Cn1c(=O)n(C)c(=O)c2c1ncn2Cc1ccccc1 , GI50 value reported: > 100 µM (inactive)

Where these numbers come from: ChEMBL document CHEMBL1201862
